Sourced from paper PMC10570038

# TARGET_OF_ASSAY: RBPMS-A dC20 (rat) (UniProt A0A8I6G705)
# Sequence (A0A8I6G705 1-177): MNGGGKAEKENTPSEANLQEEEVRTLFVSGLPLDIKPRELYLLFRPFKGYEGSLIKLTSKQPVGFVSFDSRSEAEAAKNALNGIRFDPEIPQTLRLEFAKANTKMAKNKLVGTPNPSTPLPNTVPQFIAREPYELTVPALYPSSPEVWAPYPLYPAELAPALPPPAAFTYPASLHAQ
# PROTOCOL_DETAILS: EMSA
# TEST_PARAMETERS: apparent; EMSA: 10 nM RNA, 25 mM HEPES pH 7.9, 100 mM KCl, 2 mM MgCl2, 0.625 mM DTT, 0.1 mg/ml BSA, 5% glycerol, 30 C 1 h, then 5 mg/ml heparin 10 min; 5% native PAGE in …
REPORTED_PROPERTY: pKd
Answers are plain numbers, as −log10 of the molar value.

input: Could you tell me which pKd is on file for GUCUACGCACCCUCAACCCGCACCUUGCGGGAUG [(CAC)2] ?
output: 5.60
